system: MS2 coat protein; experiment: apparent KD of MS2 coat protein; designed switch direction (-1 OFF switch, 1 ON switch): 1; higher = weaker reporter binding; conditions: Eterna round: R95; input ligand: none
# apparent KD of MS2 coat protein annotations
Your answer is read as nM, so omit the unit and give the number.

# count of solved cases: 5
Primary Sequence	Units Symbol	apparent KD of MS2 coat protein
CGUCCGGCCUGUGCUGGCCGGUCGCUUGUACAUGAGGAUCACCCAUGUUCUUGUGCUGGCUUUUUGCUCGUCUUGUG [salish99_mir208a_020] (puzzle: Sensor for hsa-mir-208a)	nM	31
AAAGCACAUGAGGAUCACCCAUGUGGAAAUAACACAGGAUAUCCGGCCGAAACUAAGGUGGGAGAAGGGUGACCUA [Aeriste] (puzzle: Same State 1)	nM	73.5
AUAAGUUCGAUGCUCGUCUCUCCGUACAAACAUGAGGAUCACCCAUGUGAUCGGGAAGUAGCCCAAUCAGUAUGGCC [Oranlaen] (puzzle: Sensor for hsa-mir-208a)	nM	31.3
GUACUACAUGAGGAUCACCCAUGUUACCUUCACGGAGGAUAUAGGAAAUGAGGUGAGAUGCUAGAAGGCCGAGGAA [Candy Rainbow 4] (puzzle: Same State 1)	nM	95.9
AUUAUACAUGAGGAUCACCCAUGUCAACGUAGUCGAGGAUAUGGGCAGCCGUGAGGCGUACUAGAAGGCGAAGAGA [Mat - Same State 1 - Mod of JL - D8] (puzzle: Same State 1)	nM	385

Need apparent KD of MS2 coat protein of GGUCCAGCCUGAGCUGGACAAAAGCAUGUACAUGAGGAUCACCCAUGUCAUGUACAGGCUUUUUGCUCGUCUUAAAA [JL mod - D87 - 7] (puzzle: Sensor for hsa-mir-208a) , thanks.
825

Return reported apparent KD of MS2 coat protein; argument: AGUCCAGCCUGAGCUGGACAAAAGCAUGUACAUGAGGAUCACCCAUGUUCAUGUACAAGCUUUUUGCUCGUCUUACG [salish99_208a_r3_078] (puzzle: Sensor for hsa-mir-208a)
638

What does the data say about its apparent KD of MS2 coat protein? Entry: AACAAUCUAUCUGAGGAUAUCAUGAAAUAAACAUGAGGAUCACCCAUGUGCUGGAAAACUGCAUAUGAGAAGGCAGAUAGAUUGA [salish99_ss2_r3_037] (puzzle: Same State 2)
395

I am curious: what apparent KD of MS2 coat protein value has been reported for UCUUGGUUUUUGCUCGUUUUUUGUGUUGAACAUGAGGAUCACCCAUGUAUUGUACGGUCCAAUUUAAUAAUAAUCCG [JMF 64] (puzzle: Sensor for hsa-mir-208a) ?
30.6

// apparent KD of MS2 coat protein lookup, key: UUGCGCUGUCGAGAGGAUAUGCGGUGUUGGACAUGAGGAUCACCCAUGUUAGCGAUAGCAUUACGGUAGAAGGCUCUUCAGCUGC [salish99_ss2_r3_096] (puzzle: Same State 2)
21.9

---

tested on: K4 kissing-loop RNA reporter; assay: apparent KD of K4 kissing-loop reporter; higher = weaker reporter binding; settings: Eterna round: R107; input ligand: tryptophan 2.4 mM;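 further: bound reporter read as fluorescence of individual clusters on recovered sequencing chips by microscopy, with normalized cluster intensities fitted with a binding model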
We begin with a simple list: items and their reported apparent KD of K4 kissing-loop reporter.
Reply numerically in nM, unit not repeated.

Primary Sequence	Units Symbol	apparent KD of K4 kissing-loop reporter
UCCUUAUCGCGGUCAUAAAGCCUAUAAAACAAGGAUAUCUCAUCAGAGAGAAGGUGUGAGUGAUGUUCAAAGGCCACCACGGGUU [theeternabot_sameState_KL_FMN_A_47]	nM	818

Which apparent KD of K4 kissing-loop reporter reading was recorded for the sequence AAGCAGUCACGCGAAGCCAUCGAAGAUGGCCGAGGACCGGUACGGCCGCCACUCGGAGUGAUGUUCCGAAGACUGCAAAAUAAAA ?
252

Look up apparent KD of K4 kissing-loop reporter for this sequence: AGAGUUUUAUGAGGAUAUGAGAUAGUUAAUGAGUGAGUUAUAGUGUAGUUUGGUUAGUGAUGUUAUUUAGAAGGCGUGAGUGAUG [zzfzmullin]
108

Field request: apparent KD of K4 kissing-loop reporter | item: GUGCAAAGCACCGGCACGAGCAGCCUAAAGGAGGAUAUGACGAAAGUCAGAAGGUCUAGUGAUGUUAGGCCUUGCUUGAGUCGAA [Omei KL FMN A Exc B v3]
327

Looking for the measured apparent KD of K4 kissing-loop reporter of GAGAACUCUUACGAUACCAGCCGGAGUGAUGUUCCGCGCUUGGACGUAGUAACCCGCACCGGCCCUUGGCAGCGUGGAUCCUAUG [Bibiinor] , can you help?
80.5

Endpoint output: apparent KD of K4 kissing-loop reporter of AUGUUGAGCGGAAGGAGCGGCUGAGCCAGUGAUGUUGGUUAAUCCAAGUGAUGUUGGAAAAGCCAGGUAGGUCGCCGUUUUACGU [whbob_SS_Arginine_B_2t145] . Value?
887
